Reference source for all entries: patent US7786152B2

Target: Human 11βHSD1 (Homo sapiens)
Construct: the enzyme source, native hepatic enzyme compared to recombinant enzyme; tissue XenoTech H0610/Lot 0210078; host or cells: human hepatic microsomes
Sequence (P28845 whole entry): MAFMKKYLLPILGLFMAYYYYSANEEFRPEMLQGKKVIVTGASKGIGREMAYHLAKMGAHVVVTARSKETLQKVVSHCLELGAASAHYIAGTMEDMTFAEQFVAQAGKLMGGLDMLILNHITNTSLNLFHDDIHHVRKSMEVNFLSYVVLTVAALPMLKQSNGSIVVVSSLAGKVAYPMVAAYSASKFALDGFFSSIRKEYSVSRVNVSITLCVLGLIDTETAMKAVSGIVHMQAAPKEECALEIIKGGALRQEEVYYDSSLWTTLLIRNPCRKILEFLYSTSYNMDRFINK
Assay: 11β HSD1 cortisol radioimmunoassay (RIA) with human hepatic microsomes
Assay type: biochemical
Conditions: read-out: % inhibition of Human 11βHSD1 @ 10 μM
The following ranges of inhibition at 10 µM define the classes used here: 0 = under 40%, 1 = from 40% up to 60%, 2 = 60% and over

Below are worked cases with known answers.
Molecule	Assigned Class
CC(=O)N1CCc2cc(NS(=O)(=O)c3cccc(Cl)c3C)ccc21 [compound 984]	2
Cc1c(Cl)cccc1S(=O)(=O)Nc1ccc2c(c1)nc(C)n2C [compound 976]	2
Cc1c(Cl)cccc1S(=O)(=O)Nc1ccc2cc[nH]c2c1 [compound 982]	1
Cc1nc2cc(NS(=O)(=O)c3ccccc3C#N)ccc2s1 [compound 583]	0
Cc1nc2cc(NS(=O)(=O)c3c(C)c(C)c(C)c(C)c3C)ccc2s1 [compound 710]	0
Cc1nc2cc(NS(=O)(=O)c3c(C(C)C)cc(C(C)C)cc3C(C)C)ccc2s1 [compound 703]	0
COc1ccc(S(=O)(=O)Nc2ccc3sc(C)nc3c2)cc1 [compound 424]	1

Let us examine a further case.
**Query** Hi, small favor: classify Cc1nc2cc(NS(=O)(=O)c3ccc(Oc4ccccc4)cc3)ccc2s1 [compound 585] by its inhibition at 10 µM when you get a moment.
**Result** 1

###

Target: Human 11βHSD1 (Homo sapiens)
Construct: the enzyme source, native hepatic enzyme compared to recombinant enzyme; tissue XenoTech H0610/Lot 0210078; host or cells: human hepatic microsomes
Experiment: 11β HSD1 cortisol radioimmunoassay (RIA) with human hepatic microsomes
Assay type: biochemical
Settings: read-out: % inhibition of Human 11βHSD1 @ 10 μM
Observed Property: inhibition at 10 µM (%)
API: value field is a number in %; no unit string.

# example entries with known answers
Compound	Observed Property	Observed Measurement
CCCc1ccc(S(=O)(=O)N(c2ccc3sc(C)nc3c2Cl)S(=O)(=O)c2ccc(CCC)cc2)cc1 [compound 995]	inhibition at 10 µM	68
Cc1nc2cc(NS(=O)(=O)c3ccc(C(C)C)cc3)ccc2s1 [compound 704]	inhibition at 10 µM	44
Cc1nc2ccc(C)c(NS(=O)(=O)c3cccc(Cl)c3C)c2s1 [compound 1021]	inhibition at 10 µM	54
CCOC(=O)Cn1c(C)nc2ccc(NS(=O)(=O)c3cccc(Cl)c3C)cc21 [compound 977]	inhibition at 10 µM	61
Cc1nc2cc(NS(=O)(=O)c3c(C)cccc3Cl)ccc2s1 [compound 425]	inhibition at 10 µM	41

Per the records, this compound ( Cc1nc2cc(NS(=O)(=O)c3cccc4c(N(C)C)cccc34)ccc2s1 [compound 554] ) has inhibition at 10 µM equal to 53

Per the records, this compound ( Cc1nc2cc(NS(=O)(=O)c3ccc(Cl)cc3Cl)ccc2s1 [compound 412] ) has inhibition at 10 µM equal to 36

Per the records, this compound ( CCOC(=O)c1cc2cc(NS(=O)(=O)c3cccc(Cl)c3C)ccc2[nH]1 [compound 986] ) has inhibition at 10 µM equal to 65

Per the records, this compound ( Cc1nc2c(Cl)c(NS(=O)(=O)c3cccc(Cl)c3C)ccc2s1 [compound 992] ) has inhibition at 10 µM equal to 61
